molecular target: PRMT5 (Homo sapiens); construct: purchased Viva (custom protein); test: PRMT5 biochemical IC50 assay with no cofactor; conditions: PRMT5, no cofactor; read-out: No Cofactor/rel IC50
MEASUREMENT LABEL: IC50

# example entries with known answers
{"columns": ["COMPOUND", "TARGET OF ASSAY", "IC50"],
 "data": [
  ["C[C@@H]1CC[C@@H](c2ccc(CN3CCOCC3)cc2)N(C(=O)C(=O)Nc2cncc(C(N)=O)c2)C1 (racemic) [Compound 213]", "PRMT5 (Homo sapiens)", "50 to 500 nM"],
  ["Cc1cc(NC(=O)C(=O)N2C[C@H](C)[C@@H](OC(C)C)C[C@H]2c2ccccc2)cnc1N (single isomer, unassigned) [Compound 1088]", "PRMT5 (Homo sapiens)", "< 50 nM"],
  ["CCc1cc(NC(=O)C(=O)N2C[C@@H](C)CC[C@@H]2c2cnc3c(c2)CCC(=O)N3)cnc1N (racemic) [Compound 916]", "PRMT5 (Homo sapiens)", "50 to 500 nM"],
  ["CC(=O)N[C@H]1C[C@H]([C@@H]2CC[C@H](C)CN2C(=O)C(=O)Nc2cnc(N)c(C)c2)C1 (single isomer, unassigned) [Compound 562]", "PRMT5 (Homo sapiens)", "> 500 nM"],
  ["CNS(=O)(=O)c1ccc([C@H]2CC[C@H](C)CN2C(=O)C(=O)Nc2cncc(C(N)=O)c2)cc1 (single isomer, unassigned) [Compound 722]", "PRMT5 (Homo sapiens)", "50 to 500 nM"]
]}

[ask] Can you look up the measured IC50 of Cc1cc(NC(=O)C(=O)N2C[C@H](C)CC[C@H]2[C@H]2CC[C@H](O)CC2)cnc1N (single isomer, unassigned) [Compound 431] for me?
[reply] 50 to 500 nM

[ask] Reported IC50, compound C[C@@H]1CC[C@@H]([C@@H]2CCC(O)C2)N(C(=O)C(=O)Nc2cncc(C(N)=O)c2)C1 (mixture of isomers) [Compound 517] : ____
[reply] > 500 nM

[ask] Bench note: what IC50 did CNc1ccc([C@@H]2CCC[C@H](C)N2C(=O)C(=O)Nc2cncc(C(N)=O)c2)cn1 (racemic) [Compound 561] show?
[reply] 50 to 500 nM

[ask] // returns reported IC50 for input COc1ccccc1[C@@H]1CC[C@@H](C)CN1C(=O)C(=O)Nc1cncc(C(N)=O)c1 (racemic) [Compound 558]
[reply] > 500 nM

[ask] // lookup IC50 for C[C@H]1CN(C(=O)C(=O)Nc2cncc(C(N)=O)c2)[C@H](c2ccc(F)cc2)CC1(F)F (single isomer, unassigned) [Compound 731]
[reply] 50 to 500 nM

[ask] Which IC50 is reported for this compound? COc1ncc(NC(=O)C(=O)N2C[C@H](C)CC[C@H]2c2ccc3nn(C)cc3c2)cc1C(N)=O (single isomer, unassigned) [Compound 1051]
[reply] > 500 nM

[ask] Given the entry Cc1cc(NC(=O)C(=O)N2C[C@@H](C)CC[C@@H]2c2ccc(-c3cncs3)cc2)cnc1N (single isomer, unassigned) [Compound 887] , report its measured IC50.
[reply] 50 to 500 nM

[ask] Which IC50 value is on record for CNc1cccc([C@H]2CCCCN2C(=O)C(=O)Nc2cnc(N)c(C)c2)c1 (single isomer, unassigned) [Compound 356] ?
[reply] 50 to 500 nM

----------
test system: HAP1 MTAP-intact cell line; assay: SDMA in-cell western assay, HAP1 MTAP-intact; assay type: cell-based; details: Homo sapiens, HAP1, SDMA in-cell western, HAP1 MTAP-intact; read-out: MTAP HAP1 intact IC50
pIC50: −log10 of the molar value.
Known pIC50 of a selection of compounds

{"columns": ["COMPOUND", "pIC50"],
 "data": [
  ["Cc1cc(NC(=O)C(=O)N2C[C@@H](C)CC[C@@H]2[C@@H]2CCC[C@@H](O)C2)cnc1N (single isomer, unassigned) [Compound 568]", "< 6.00"],
  ["Cc1ccc([C@H]2CC(F)(F)[C@H](C)CN2C(=O)C(=O)Nc2cnc(N)c(C)c2)cn1 (single isomer, unassigned) [Compound 973]", "6.00 to 7.00"],
  ["CC(=O)Nc1ccc([C@H]2CC[C@H](C)CN2C(=O)C(=O)Nc2cnc(N)c(C)c2)s1 (single isomer, unassigned) [Compound 717]", "< 6.00"]
]}

[ask] Entry under review: O=C(Nc1cncc(CO)c1)C(=O)N1CCCCC1c1ccccc1 (stereo not drawn) [Compound 136] . Reported pIC50?
[reply] < 6.00

[ask] Tell me the measured pIC50 of Cc1cc(NC(=O)C(=O)N2C[C@H](C)CC[C@H]2c2ccncc2)cnc1N (single isomer, unassigned) [Compound 592] , please.
[reply] 6.00 to 7.00

[ask] Quick one: pIC50 for C[C@H]1CCC(c2ccc3sc(C4CCOCC4)nc3c2)N(C(=O)C(=O)Nc2cnc(N)c(C3CC3)c2)C1 (single isomer, unassigned) [Compound 1258] ?
[reply] 6.00 to 7.00

----------
molecular target: PRMT5 (Homo sapiens); construct: purchased Viva (custom protein); assay: PRMT5 biochemical IC50 assay with SAM as cofactor; details: PRMT5, SAM as cofactor; read-out: SAM IC50
MEASUREMENT LABEL: IC50

Use the examples below as a reference point.
{"columns": ["COMPOUND", "IC50"],
 "data": [
  ["C[C@@H]1CC[C@@H](C2CCCC2)N(C(=O)C(=O)Nc2cncc(C(N)=O)c2)C1 (racemic)", "50 to 500 nM"],
  ["C[C@H]1C[C@H](C)[C@H](c2ccccc2)N(C(=O)C(=O)Nc2cncc(C(N)=O)c2)C1 (single isomer, unassigned)", "< 50 nM"]
]}

[ask] Hi! What's the reported IC50 for `CCc1cc(NC(=O)C(=O)N2C[C@@H](C)CC[C@@H]2c2ccc3sc(C45CC(C4)N(C)C5)nc3c2)cnc1N` on PRMT5 (Homo sapiens)?
[reply] < 50 nM

----------
target: PRMT5 (Homo sapiens, UniProt O14744); construct: purchased Viva (custom protein); test: PRMT5 biochemical IC50 assay with no cofactor; details: PRMT5, no cofactor; read-out: No Cofactor/rel IC50
Sequence (O14744 whole entry): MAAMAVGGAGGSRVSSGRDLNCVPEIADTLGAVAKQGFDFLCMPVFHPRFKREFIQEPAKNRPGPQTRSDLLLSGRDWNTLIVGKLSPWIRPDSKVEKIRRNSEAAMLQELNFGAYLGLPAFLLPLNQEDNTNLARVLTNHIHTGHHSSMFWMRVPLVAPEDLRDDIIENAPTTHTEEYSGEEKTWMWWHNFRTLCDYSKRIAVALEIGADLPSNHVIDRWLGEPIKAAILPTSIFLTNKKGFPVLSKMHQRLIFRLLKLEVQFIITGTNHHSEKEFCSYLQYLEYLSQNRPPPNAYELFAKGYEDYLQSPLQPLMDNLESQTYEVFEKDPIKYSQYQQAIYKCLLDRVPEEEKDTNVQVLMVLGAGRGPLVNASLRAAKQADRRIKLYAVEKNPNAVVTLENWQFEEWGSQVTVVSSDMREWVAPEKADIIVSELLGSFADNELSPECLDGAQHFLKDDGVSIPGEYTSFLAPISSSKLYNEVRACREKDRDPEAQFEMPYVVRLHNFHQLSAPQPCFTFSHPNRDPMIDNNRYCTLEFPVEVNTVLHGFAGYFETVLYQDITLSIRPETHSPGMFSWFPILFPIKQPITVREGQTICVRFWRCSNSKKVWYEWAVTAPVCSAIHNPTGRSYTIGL
Sequence (Q9BQA1 whole entry partner): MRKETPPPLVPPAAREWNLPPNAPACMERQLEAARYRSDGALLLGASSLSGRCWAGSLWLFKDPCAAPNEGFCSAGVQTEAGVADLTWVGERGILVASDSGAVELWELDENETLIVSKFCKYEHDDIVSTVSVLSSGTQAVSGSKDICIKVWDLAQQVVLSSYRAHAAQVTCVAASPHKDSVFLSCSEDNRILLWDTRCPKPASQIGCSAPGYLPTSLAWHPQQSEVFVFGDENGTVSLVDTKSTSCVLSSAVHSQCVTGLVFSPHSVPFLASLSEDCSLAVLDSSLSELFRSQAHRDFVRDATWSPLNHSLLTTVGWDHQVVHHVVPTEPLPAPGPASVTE
MEASUREMENT LABEL: IC50

Known results for compounds:
{"columns": ["COMPOUND", "IC50"],
 "data": [
  ["Cc1c(NC(=O)C(=O)N2[C@H](C)CCC[C@@H]2c2ccccc2)cnc(N)c1C (single isomer, unassigned)", "50 to 500 nM"],
  ["COc1cc(NC(=O)C(=O)N2C[C@@H](C)CC[C@@H]2c2ccc(F)cc2)cnc1N", "50 to 500 nM"],
  ["C[C@@H]1CC[C@@H](c2ccc3[nH]c(=O)ccc3c2)N(C(=O)C(=O)Nc2cncc(C(N)=O)c2)C1 (single isomer, unassigned) [Compound 804]", "> 500 nM"],
  ["CCc1cc(NC(=O)C(=O)N2C[C@@H](C)CC[C@@H]2c2ccc3sc(CCN(C)C4COC4)nc3c2)cnc1N", "< 50 nM"],
  ["COc1ncc(NC(=O)C(=O)N2C[C@@H](C)CC[C@@H]2c2ccc3sc([C@H]4CCN(C)C[C@H]4C)nc3c2)cc1C(N)=O (racemic)", "< 50 nM"]
]}

Next item in the queue.
[ask] Report IC50 for `CCc1cc(NC(=O)C(=O)N2C[C@@H](C)CC[C@@H]2c2ccc3sc(C4CCN(C)CC4)nc3c2)cnc1C` please.
[reply] < 50 nM

----------
tested on: HAP1 MTAP-deleted cell line; experiment: Viability assay, MTAP-deleted cell line; format: cell-based; conditions: Homo sapiens, HAP1, viability, HAP1 MTAP-deleted cell line; read-out: HAP1 MTAP deleted viability
MEASUREMENT LABEL: IC50

Example entries begin here.
{"columns": ["COMPOUND", "IC50"],
 "data": [
  ["CCc1cc(NC(=O)C(=O)N2C[C@@H](C)CC[C@@H]2c2ccc3sc([C@@H]4CCN(C)C(=O)C4)nc3c2)cnc1N", "< 1000 nM"],
  ["CCc1cc(NC(=O)C(=O)N2C[C@@H](C)CC[C@@H]2c2ccc3sc(C4CCNCC4)nc3c2)cnc1N", "< 1000 nM"]
]}

[ask] Quick one: IC50 of CCc1cc(NC(=O)C(=O)N2C[C@H](C)C(F)(F)C[C@H]2c2ccc3[nH]ncc3c2)cnc1N (single isomer, unassigned) ?
[reply] < 1000 nM

----------
biological target: PRMT5 (Homo sapiens); construct: purchased Viva (custom protein); assay: PRMT5 biochemical IC50 assay with no cofactor; conditions: PRMT5, no cofactor; read-out: No Cofactor/rel IC50
Below is a list of entries, each paired with its recorded IC50 value.

The examples below pair each entry with its known result.
{"columns": ["MOLECULE", "IC50"],
 "data": [
  ["CCc1cc(NC(=O)C(=O)N2C[C@H](C)CC[C@H]2c2ccc3c(c2)CNC3=O)cnc1N (single isomer, unassigned) [Compound 699]", "> 500 nM"],
  ["C[C@@H]1CC[C@@H](c2ccccc2)N(C(=O)C(=O)Nc2cncc(C(N)=O)c2)[C@H]1C (single isomer, unassigned) [Compound 482]", "50 to 500 nM"]
]}

Could you now consider this next molecule?
[ask] // lookup IC50 | system=PRMT5 (Homo sapiens) | key= Cc1cc(NC(=O)C(=O)N2C[C@H](C)CC[C@H]2c2ccc(F)c3[nH]ncc23)cnc1N (racemic) [Compound 1019]
[reply] 50 to 500 nM
